Recorded measurements of Competition ELISA (normalized to XAB1 Fab), one per entry
Molecular target: T1, human IL-17A (construct not specified) (human, UniProt Q16552 24-155, limits assumed)
T1 construct: also called huIL-17A
T1 sequence: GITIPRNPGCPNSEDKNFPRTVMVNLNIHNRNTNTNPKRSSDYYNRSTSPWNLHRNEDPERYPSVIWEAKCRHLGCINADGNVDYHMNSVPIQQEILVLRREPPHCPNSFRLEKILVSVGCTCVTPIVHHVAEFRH
Assay: ELISA, coated huIL-17A, then 200 nM XAB1 Fab as competitor
Report the figure in fold without appending any unit label.

// query Item under review: MB440 (Fab, V domains shown, Fab variant of XAB1) VH: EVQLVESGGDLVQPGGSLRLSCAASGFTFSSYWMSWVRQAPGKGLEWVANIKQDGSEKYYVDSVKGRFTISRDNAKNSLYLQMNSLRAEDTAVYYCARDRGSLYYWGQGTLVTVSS VL: AIQLTQSPSSLSASVGDRVTITCRPSQGILWQLAWYQQKPGKAPKLLIYDASSLENGVPSRFSGSGSGTDFTLTISSLQPEDFATYYCQQFNSYPLTFGGGTKVEIK . Reported Competition ELISA (normalized to XAB1 Fab)?
// result 54

// query Item under review: MB453 (Fab, V domains shown, Fab variant of XAB1) VH: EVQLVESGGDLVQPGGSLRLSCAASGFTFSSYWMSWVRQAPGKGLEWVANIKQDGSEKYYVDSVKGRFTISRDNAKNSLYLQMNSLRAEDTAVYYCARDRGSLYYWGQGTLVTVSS VL: AIQLTQSPSSLSASVGDRVTITCRPSQGIVFWLAWYQQKPGKAPKLLIYDASSLENGVPSRFSGSGSGTDFTLTISSLQPEDFATYYCQQFNSYPLTFGGGTKVEIK . Reported Competition ELISA (normalized to XAB1 Fab)?
// result 46.4

// query Item under review: MB444 (Fab, V domains shown, Fab variant of XAB1) VH: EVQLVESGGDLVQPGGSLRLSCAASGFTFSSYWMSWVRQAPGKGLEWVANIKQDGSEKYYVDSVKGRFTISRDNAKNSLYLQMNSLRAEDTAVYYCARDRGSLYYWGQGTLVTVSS VL: AIQLTQSPSSLSASVGDRVTITCRPSQGILWELAWYQQKPGKAPKLLIYDASSLENGVPSRFSGSGSGTDFTLTISSLQPEDFATYYCQQFNSYPLTFGGGTKVEIK . Reported Competition ELISA (normalized to XAB1 Fab)?
// result 52.4

Reference for the values: patent US20170291939A1
